The entries below come with measured IC50 values attached.
# System: MDA-MB-231
# ASSAY INFO: Antiproliferative activity against human MDA-MB-231 cells after 48 hrs by MTT assay
# Assay type: functional, cell-based
# MEASUREMENT SETUP: Homo sapiens, MDA-MB-231, 48 h; read-out: IC50
Report field: quantity (unit follows the number).

>>> print(df.to_string())
                         structure_notation  test_system  reported_measurement
0  Oc1ccc([C@@H]2Oc3ccccc3[C@H](c3ccc(OCCN4CCCC4)cc3)[C@H]2c2ccccc2)cc1   MDA-MB-231               17.8 µM
1  Oc1ccc([C@@H]2Oc3ccccc3[C@H](c3ccc(OCCN4CCCCC4)cc3)[C@H]2c2ccccc2)cc1   MDA-MB-231               8.65 µM
2  CC(C)N(CCOc1ccc([C@H]2c3ccccc3O[C@@H](c3ccc(O)cc3)[C@@H]2c2ccccc2)cc1)C(C)C   MDA-MB-231               7.48 µM
3  CC(=O)Oc1ccc([C@@H]2Oc3ccccc3[C@H](c3ccc(OCCCN(C)C)cc3)[C@H]2c2ccccc2)cc1   MDA-MB-231               5.61 µM
4  CC(=O)Oc1ccc([C@@H]2Oc3ccccc3[C@H](c3ccc(OCCN4CCCCC4)cc3)[C@H]2c2ccccc2)cc1   MDA-MB-231                 14 µM

--- query ---
Observed IC50 on MDA-MB-231 for "CC/C(=C(\c1ccccc1)c1ccc(OCCN(C)C)cc1)c1ccccc1" , please.
9.86 µM

The reported numbers originate from ChEMBL document CHEMBL1152595.
